# Study Target: Mushroom TYR (EC 1.14.18.1) (Agaricus bisporus)
# Method Summary: biochemical
# Experimental Conditions: IC50 value ± SD, L-tyrosine
Some compounds, each annotated with its measured IC50.
Give just the numeric value; µM need not be written.

Entry O=C(CCc1ccccc1O)N1CCN(Cc2ccc(F)cc2)CC1 [Compound V-3] : reported IC50 = ?
60.6

Would you kindly repeat that for CCOc1ccc(CN2CCN(C(=O)/C=C/c3ccc(O)cc3O)CC2)cc1 [Compound V-28] ?
0.021

Would you kindly repeat that for O=C(/C=C/c1ccc(O)cc1O)N1CCN(Cc2ccc(Cl)cc2)CC1 [Compound V-32] ?
0.024

Would you kindly repeat that for Cc1ccc(CN2CCN(C(=O)/C=C/c3ccc(O)cc3O)CC2)cc1 [Compound V-24] ?
0.02

Would you kindly repeat that for O=C(CCc1cccc(O)c1)N1CCN(Cc2ccc(F)cc2)CC1 [Compound V] ?
11.9

----------
# Study Target: Mushroom TYR (EC 1.14.18.1) (Agaricus bisporus, UniProt C7FF04)
# Sequence (C7FF04 1-392 limits assumed): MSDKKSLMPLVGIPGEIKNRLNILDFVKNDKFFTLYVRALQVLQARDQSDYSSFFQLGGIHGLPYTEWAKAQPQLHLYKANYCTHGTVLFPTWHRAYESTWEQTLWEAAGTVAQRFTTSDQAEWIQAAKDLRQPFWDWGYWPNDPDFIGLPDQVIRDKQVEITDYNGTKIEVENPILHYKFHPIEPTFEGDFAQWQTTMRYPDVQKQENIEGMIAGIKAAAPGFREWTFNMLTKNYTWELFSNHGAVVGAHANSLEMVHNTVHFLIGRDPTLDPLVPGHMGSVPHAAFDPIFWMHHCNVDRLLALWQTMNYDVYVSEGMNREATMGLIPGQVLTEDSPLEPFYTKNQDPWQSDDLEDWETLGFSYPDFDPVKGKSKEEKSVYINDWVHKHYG
# Method Summary: biochemical
# Experimental Conditions: IC50 value ± SD, L-dopa
Reported Endpoint: pIC50
Kindly note that pIC50 refers to -log10 of the concentration in mol/L and answer with the value alone.

| Compound | Number |
| --- | --- |
| O=C(CCc1cc(O)cc(O)c1)N1CCN(Cc2ccc(F)cc2)CC1 [Compound V-20] | 4.67 |
| O=C(CCc1cc(O)ccc1O)N1CCN(Cc2ccc(F)cc2)CC1 [Compound V-21] | 4.68 |
| N#Cc1ccc(CN2CCN(C(=O)CCc3ccc(O)cc3O)CC2)cc1 [Compound V-33] | 6.63 |
| COc1ccc(CN2CCN(C(=O)/C=C/c3ccc(O)cc3O)CC2)cc1 [Compound V-26] | 7.70 |
| COc1ccc(CN2CCN(C(=O)CCc3ccc(O)cc3O)CC2)cc1 [Compound V-25] | 6.83 |

Entry O=C(CCc1cccc(O)c1)N1CCCN(Cc2ccc(F)cc2)CC1 [Compound V-6] : reported pIC50 = ?
3.53

Would you kindly repeat that for O=C(/C=C/c1ccc(O)cc1O)N1CCN(Cc2ccc(F)cc2)CC1 [Compound V-22] ?
7.07

Would you kindly repeat that for CCOc1ccc(CN2CCN(C(=O)CCc3ccc(O)cc3O)CC2)cc1 [Compound V-27] ?
6.22

Would you kindly repeat that for O=C(CCc1cccc(O)c1)N1CCN(Cc2cccc(Cl)c2)CC1 [Compound V-10] ?
4.72

Would you kindly repeat that for COc1ccc(CN2CCN(C(=O)CCc3cccc(O)c3)CC2)cc1 [Compound V-13] ?
3.99

Would you kindly repeat that for O=C(CCc1cccc(O)c1)N1CCN(C/C=C/c2ccc(F)cc2)CC1 [Compound V-15] ?
3.85

Would you kindly repeat that for CCOc1ccc(CN2CCN(C(=O)/C=C/c3ccc(O)cc3O)CC2)cc1 [Compound V-28] ?
7.72

----------
# Study Target: Mushroom TYR (EC 1.14.18.1) (Agaricus bisporus, UniProt C7FF04)
# Method Summary: biochemical
# Experimental Conditions: IC50 value ± SD, L-tyrosine, substrate L-tyrosine (monophenolase); n = 3; screening of de novo generated compounds (Table 1)
Reported Endpoint: IC50

Previously resolved entries follow.
| Compound | IC50 |
| --- | --- |
| O=C(CCc1cccc(O)c1)NC1CCN(Cc2ccccc2)CC1 | 198 µM |
| Cc1ccccc1CNC(=O)CCc1cccc(O)c1 | 60.9 µM |
| COc1cc(C(=O)N[C@@H](Cc2ccccc2)C(N)=O)ccc1O | > 800 µM |
| NC(=O)[C@H](Cc1ccccc1)NC(=O)CCc1cccc(O)c1 | 423 µM |
| O=C(CCc1cccc(O)c1)N1CCN(Cc2ccc(F)cc2)CC1 | 9.6 µM |
| O=C(C=Cc1ccccc1)NCCc1cccc(O)c1 [XI, N-(3-hydroxyphenethyl)cinnamamide] | 622 µM |
| O=C(NCc1ccc(F)cc1)c1cc(O)nc2ccccc12 | > 800 µM |
| O=C(/C=C/c1ccccc1)N1CCN(c2cccc(O)c2)CC1 | 35.9 µM |

Entry `O=C(O)c1ccc(CN2CCC(C(=O)c3ccccc3)CC2)cc1` : reported IC50 = ?
> 800 µM

Would you kindly repeat that for `COc1cccc(/C=C/C(=O)Nc2n[nH]c3ccccc23)c1` ?
> 800 µM

Would you kindly repeat that for `O=C(Oc1ccc(N2CCNCC2)cc1)c1cnc2ccccc2c1` ?
16 µM

Would you kindly repeat that for `Cc1nc2cc(C(=O)N3CCCN(Cc4ccccc4)CC3)ccc2[nH]1` ?
449 µM

Would you kindly repeat that for `O=C(c1cccc(OCc2ccccc2)c1)N1CCN(c2ccc(O)cc2)CC1` ?
> 800 µM
